System: newly emerged larvae of Lucilia sericata, blowfly
Assay procedure: Efficacy against blowfly larvae, treated paper/serum bioassay
Type: in vivo
Measurement conditions: Conc. 20.0 ppm; 24 h; blowfly larvae

Molecule | % Mortality 24 h
CC1(c2nn(-c3c(Cl)cc(C(F)(F)F)cc3Cl)c(Br)c2C#N)CC1(Cl)Cl (stereo not shown) | 100%
CC1(c2nn(-c3c(Cl)cc(C(F)(F)F)cc3Cl)c([N+](=O)[O-])c2C#N)CC1(Cl)Cl (stereo not shown) | 20%
CC(C)(C)C(=O)Nc1c(C#N)c(C2(C)CC2(Cl)Cl)nn1-c1c(Cl)cc(C(F)(F)F)cc1Cl (stereo not shown) | 0%
CC1(c2nn(-c3c(Cl)cc(C(F)(F)F)cc3Cl)cc2C#N)CC1(Br)Br (stereo not shown) | 95%

Entry source: patent US20060154923A1
